Biological target: B7-1/CD28 binding (Homo sapiens)
Test: CD28/B7-1 ELISA (B7-1/CD28 binding inhibition)
Settings: CD28-Fc coated wells, B7-1-Fc-biotin/streptavidin-alkaline phosphatase detection complex, 1% DMSO
RECORDED_ENDPOINT: IC50 (nM)

MOLECULE	REPORTED
Cc1csc(C(=O)O)c1-n1[nH]c2c(c(-c3cccc(C(F)(F)F)c3)nc3c2cnn3C)c1=O	1700
COC(=O)c1ccc(-n2[nH]c3c(c(-c4cccc(Br)c4)nc4c3cnn4C)c2=O)cc1Cl	9
CCOC(=O)c1cccc(-n2[nH]c3c(c(-c4cccc(C(F)(F)F)c4)nc4c3cnn4C)c2=O)c1	170
COC(=O)c1ccc(-n2[nH]c3c(c(-c4cccc(C(F)(F)F)c4)nc4c3cnn4C)c2=O)cc1Cl	41
COC(=O)c1cc(-n2[nH]c3c(c(-c4cccc(C(F)(F)F)c4)nc4c3cnn4C)c2=O)ccc1F	98
CCOc1ccc(-n2[nH]c3c(c(-c4cccc(C(F)(F)F)c4)nc4c3cnn4C)c2=O)nn1	290
CCOC(=O)c1scc(C)c1-n1[nH]c2c(c(-c3cccc(C(F)(F)F)c3)nc3c2cnn3C)c1=O	2100

----------
Target: B7-1/CD28 binding (Homo sapiens, UniProt P33681)
Experiment: CD28/B7-1 ELISA (B7-1/CD28 binding inhibition)
Conditions: CD28-Fc coated wells, B7-1-Fc-biotin/streptavidin-alkaline phosphatase detection complex, 1% DMSO
RECORDED_ENDPOINT: log10(IC50) (log10 of the value in nM)

COMPOUND	log10(IC50)
Cn1ncc2c3[nH]n(-c4ccc(F)cc4)c(=O)c3c(-c3cccc([N+](=O)[O-])c3)nc21	1.70
O=c1c2c(-c3cccc(C(F)(F)F)c3)nc3c(cnn3CCO)c2[nH]n1-c1ccc(F)cc1	2.90
Cn1ncc2c3[nH]n(-c4ccccn4)c(=O)c3c(-c3cncc(Br)c3)nc21	2.60
Cn1ncc2c3[nH]n(-c4ccc(Cl)cc4)c(=O)c3c(-c3ccccc3)nc21	3.26
COC(=O)c1ccc(-n2[nH]c3c(c(-c4cccc(C(F)(F)F)c4)nc4c3cnn4C)c2=O)cc1F	1.08
Cn1ncc2c3[nH]n(-c4ccc(C(=O)O)c(Cl)c4)c(=O)c3c(-c3cccc(C(F)(F)F)c3)nc21	1.20
CCCn1ncc2c3[nH]n(-c4ccc(F)cc4)c(=O)c3c(-c3cccc(C(F)(F)F)c3)nc21	1.95
Cc1cc(C)cc(-n2[nH]c3c(c(-c4cccc(C(F)(F)F)c4)nc4c3cnn4C)c2=O)c1	1.82
CC1CN(c2nc3c(cnn3C)c3[nH]n(-c4cccc(F)c4)c(=O)c23)CC(C)O1 (stereo not shown)	2.27
COc1cccc(-c2nc3c(cnn3C)c3[nH]n(-c4cccc(F)c4)c(=O)c23)c1	1.91
COC(=O)c1cccc(-n2[nH]c3c(c(-c4cccc(C(F)(F)F)c4)nc4c3cnn4C)c2=O)c1	0.90
Cn1ncc2c3[nH]n(-c4cccc(F)c4)c(=O)c3c(-c3cccc(C(=O)O)c3)nc21	1.85
Cn1ncc2c3[nH]n(-c4cccc(F)c4)c(=O)c3c(-c3cccc(S(C)(=O)=O)c3)nc21	3.28
Cc1cccc(-c2nc3c(cnn3C)c3[nH]n(-c4cc(C)cc(C)c4)c(=O)c23)c1	3.00
Cn1ncc2c3[nH]n(-c4ccccn4)c(=O)c3c(-c3cccc(Br)c3)nc21	1.85
O=c1c2c(-c3cccc(C(F)(F)F)c3)nc3[nH]ncc3c2[nH]n1-c1ccc(F)cc1	1.70

----------
Biological target: B7-1/CD28 binding (Homo sapiens)
Sequence (P33681 35-242 limits assumed): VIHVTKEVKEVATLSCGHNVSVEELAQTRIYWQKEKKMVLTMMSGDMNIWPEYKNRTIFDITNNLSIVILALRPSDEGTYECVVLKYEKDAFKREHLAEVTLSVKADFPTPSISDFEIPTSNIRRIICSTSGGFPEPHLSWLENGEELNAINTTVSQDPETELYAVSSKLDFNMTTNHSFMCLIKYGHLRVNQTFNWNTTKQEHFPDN
Assay: CD28/B7-1 ELISA (B7-1/CD28 binding inhibition)
Conditions: CD28-Fc coated wells, B7-1-Fc-biotin/streptavidin-alkaline phosphatase detection complex, 1% DMSO
pIC50: −log10 of the molar value.
Returns YES if the recorded pIC50 is greater than or equal to 7, and NO otherwise.

MOLECULE	CLASS_LABEL
Cn1ncc2c3[nH]n(-c4cccc(F)c4)c(=O)c3c(-c3cccc(C#N)c3)nc21	YES
Cn1ncc2c3[nH]n(-c4ccc(F)cc4)c(=O)c3c(-c3cccc(N)c3)nc21	NO
Cn1ncc2c3[nH]n(-c4ccc(F)cc4)c(=O)c3c(-c3cccc(C(F)(F)F)c3)nc21	YES
Cn1ncc2c3[nH]n(-c4ccc(C(=O)O)cc4)c(=O)c3c(-c3cccc(C(F)(F)F)c3)nc21	NO
Cn1ncc2c3[nH]n(-c4ccc(-c5ccccc5)cc4)c(=O)c3c(-c3cccc(C(F)(F)F)c3)nc21	YES
Cn1ncc2c3[nH]n(-c4ccc(I)cc4)c(=O)c3c(-c3cccc(C(F)(F)F)c3)nc21	YES

----------
Biological target: B7-1/CD28 binding (Homo sapiens, UniProt P33681)
Experiment: CD28/B7-1 ELISA (B7-1/CD28 binding inhibition)
Conditions: CD28-Fc coated wells, B7-1-Fc-biotin/streptavidin-alkaline phosphatase detection complex, 1% DMSO
pIC50: −log10 of the molar value.
RECORDED_ENDPOINT: pIC50

MOLECULE	RECORDED_ENDPOINT	REPORTED
Cc1cccc(-c2nc3c(cnn3C)c3[nH]n(-c4ccccn4)c(=O)c23)c1 [Example 10]	pIC50	6.82
Cn1ncc2c3[nH]n(-c4ccc(OCc5ccccc5)cc4)c(=O)c3c(-c3cccc(C(F)(F)F)c3)nc21 [Example 58]	pIC50	7.60
Cn1ncc2c3[nH]n(-c4ccc(N)cc4)c(=O)c3c(-c3cccc(C(F)(F)F)c3)nc21 [Example 48]	pIC50	7.30
Cn1ncc2c3[nH]n(-c4nccc(C(F)(F)F)n4)c(=O)c3c(-c3cccc(C(F)(F)F)c3)nc21 [Example 45]	pIC50	5.92
Cn1ncc2c3[nH]n(-c4cccc(OCc5ccccc5)c4)c(=O)c3c(-c3cccc(C(F)(F)F)c3)nc21 [Example 59]	pIC50	7.70
Cn1ncc2c3[nH]n(-c4cccc(F)c4)c(=O)c3c(-c3ccsc3)nc21 [Example 74]	pIC50	6.98
Cc1cc(C)cc(-n2[nH]c3c(c(-c4cccc(Br)c4)nc4c3cnn4C)c2=O)c1 [Example 17]	pIC50	7.24
Cn1ncc2c3[nH]n(-c4cccc(F)c4)c(=O)c3c(-c3cncc(Br)c3)nc21 [Example 4]	pIC50	7.70
O=c1c2c(-c3cccc(C(F)(F)F)c3)nc3c(cnn3-c3ccccc3)c2[nH]n1-c1cccc(F)c1 [Example 7]	pIC50	6.12
Cn1ncc2c3[nH]n(-c4ccc(F)cc4)c(=O)c3c(-c3cncc(Br)c3)nc21 [Example 8]	pIC50	6.70
CCn1ncc2c3[nH]n(-c4ccc(F)cc4)c(=O)c3c(-c3cccc(C(F)(F)F)c3)nc21 [Example 67]	pIC50	6.11
Cn1ncc2c3[nH]n(-c4cccc(C(=O)O)c4)c(=O)c3c(-c3cccc(C(F)(F)F)c3)nc21 [Example 21]	pIC50	7.32
Cn1ncc2c3[nH]n(-c4cccc(F)c4)c(=O)c3c(-c3cccc([N+](=O)[O-])c3)nc21 [Example 50]	pIC50	8.40
Cn1ncc2c3[nH]n(-c4cccc(F)c4)c(=O)c3c(-c3cccc(C(N)=O)c3)nc21 [Example 54]	pIC50	5.82
Cc1cc(-n2[nH]c3c(c(-c4cccc(Br)c4)nc4c3cnn4C)c2=O)cc(C(F)(F)F)c1 [Example 12]	pIC50	6.72
COC(=O)c1ccc(-n2[nH]c3c(c(-c4cccc(C(F)(F)F)c4)nc4c3cnn4C)c2=O)cc1 [Example 34]	pIC50	7.51
Cn1ncc2c3[nH]n(-c4ccc(F)c(C(=O)O)c4)c(=O)c3c(-c3cccc(C(F)(F)F)c3)nc21 [Example 36]	pIC50	7.15
Cn1ncc2c3[nH]n(-c4ccc(=O)[nH]n4)c(=O)c3c(-c3cccc(C(F)(F)F)c3)nc21 [Example 24]	pIC50	7.14
Cn1ncc2c3[nH]n(-c4ccc(Cl)c(C(=O)O)c4)c(=O)c3c(-c3cccc(C(F)(F)F)c3)nc21 [Example 25]	pIC50	8.15
Cn1ncc2c3[nH]n(-c4ccc(C(=O)O)c(Cl)c4)c(=O)c3c(-c3cccc(Br)c3)nc21 [Example 32]	pIC50	8.05
Cn1ncc2c3[nH]n(-c4ccc([N+](=O)[O-])cc4)c(=O)c3c(-c3cccc(Br)c3)nc21 [Example 18]	pIC50	7.92
Cn1ncc2c3[nH]n(-c4cccc(F)c4)c(=O)c3c(-c3cccc([S+](C)[O-])c3)nc21 (stereo not drawn) [Example 56]	pIC50	6.48
Cn1ncc2c3[nH]n(-c4ccccc4F)c(=O)c3c(-c3cccc(C(F)(F)F)c3)nc21 [Example 41]	pIC50	6.40
Cn1ncc2c3[nH]n(-c4ccc(F)cc4F)c(=O)c3c(-c3cccc(C(F)(F)F)c3)nc21 [Example 44]	pIC50	6.00
Cn1ncc2c3[nH]n(-c4cccc(F)c4)c(=O)c3c(-c3cccc(C(F)(F)F)c3)nc21 [Example 43]	pIC50	7.70
COC(=O)c1cc(-n2[nH]c3c(c(-c4cccc(C(F)(F)F)c4)nc4c3cnn4C)c2=O)ccc1Cl [Example 26]	pIC50	6.92
Cn1ncc2c3[nH]n(-c4ccc(C(C)(C)C)cc4)c(=O)c3c(-c3cccc(C(F)(F)F)c3)nc21 [Example 42]	pIC50	6.05
Cn1ncc2c3[nH]n(-c4ccc(C(=O)O)c(F)c4)c(=O)c3c(-c3cccc(C(F)(F)F)c3)nc21 [Example 38]	pIC50	6.68
Cn1ncc2c3[nH]n(-c4cccc(F)c4)c(=O)c3c(-c3cc(Cl)cc(Cl)c3)nc21 [Example 73]	pIC50	7.40
Cn1ncc2c3[nH]n(-c4cccc(F)c4)c(=O)c3c(-c3ccc4c(c3)OCO4)nc21 [Example 76]	pIC50	6.53
